Source listed as ChEMBL document CHEMBL4513216.

experiment: Toxicity liver stage against HepG2, at 10uM; assay type: cell-based; parameters: test concentration 10 uM, cell line HepG2-A16-CD81EGFP; details: human, HepG2-A16-CD81EGFP cells; read-out: INHIBITION
Reported Endpoint: cytotoxicity at 10 µM (%)
A number alone suffices; assume %.

Consider the compound COc1cccc(C(=O)N2C[C@@H](c3ccccc3)[C@@H]3NCCCC[C@@H]32)c1 and give its recorded cytotoxicity at 10 µM.
-14.1

Consider the compound Cc1nc(SCC(=O)Nc2ccc(C(N)=O)cc2)c(C#N)c(C)c1C and give its recorded cytotoxicity at 10 µM.
-5.28

Consider the compound Cc1cccc(CN2CCC3(CCN(c4ncccn4)CC3)C2=O)c1 and give its recorded cytotoxicity at 10 µM.
5.32

Consider the compound CN(C)C(C(=O)N1CCCC1)c1ccccc1F (stereo unspecified) and give its recorded cytotoxicity at 10 µM.
7.35

Consider the compound CC(=O)NC[C@H]1COCc2nc3c(C)cccc3n21 and give its recorded cytotoxicity at 10 µM.
8.65

In the following, a different compound is considered.
Consider the compound Cn1cccc1C(=O)NCc1cnc2n1CCN(c1ccccn1)C2 and give its recorded cytotoxicity at 10 µM.
-2.74
